Where do the numbers come from? From patent US10266544B2.

Counter-ions that a name gives are not always drawn.
Listed here: molecules with reported MIC for Moraxella catarrhalis.
Give the value, in units of µg/mL, as a plain number.

Observe how each entry below is paired with its result.
{"MOLECULE": "CN[C@@H]1[C@H](O)[C@H](NC)[C@H]2O[C@]3(O)[C@H](O[C@@H]2[C@H]1O)O[C@H](C)C[C@@]3(O)CNCCc1ccccc1 [compound 6, Trihydrochloride]", "VALUE KIND": "MIC", "RECORDED RESULT": 0.4}
{"MOLECULE": "CN[C@@H]1[C@H](O)[C@H](NC)[C@H]2O[C@]3(O)[C@H](O[C@@H]2[C@H]1O)O[C@H](C)C[C@@]3(O)CNCCc1ccc(OC)cc1 [compound 53, Trihydrochloride]", "VALUE KIND": "MIC", "RECORDED RESULT": 3.1}
{"MOLECULE": "CN[C@@H]1[C@H](O)[C@H](NC)[C@H]2O[C@]3(O)[C@H](O[C@@H]2[C@H]1O)O[C@H](C)C[C@@]3(O)CNCCc1nccs1", "VALUE KIND": "MIC", "RECORDED RESULT": 3.1}

API: value(readout=MIC, system=Moraxella catarrhalis) for record CN[C@@H]1[C@H](O)[C@H](NC)[C@H]2O[C@]3(O)[C@H](O[C@@H]2[C@H]1O)O[C@H](C)C[C@@]3(O)CNCc1ccc(Cl)s1 [compound 21, Trihydrobromide] 0.8

* * *

Tested on: Bacillus anthracis, Sterne 34F2
Assay: microbe, parasite or virus in culture
Assay type: cell-based
Conditions: STERNE34F2, read-out: MIC B.a.
Counter-ions that a name gives are not always drawn.
Reported values of MIC for individual entries
Show the value, then the unit it is measured in.

Observe how each entry below is paired with its result.
{"COMPOUND": "CN[C@@H]1[C@H](O)[C@H](NC)[C@H]2O[C@]3(O)[C@H](O[C@@H]2[C@H]1O)O[C@H](C)C[C@@]3(O)CNCCc1ccc(C)c(C)c1 [compound 55, Trihydrochloride]", "MEASURED TARGET": "Bacillus anthracis, Sterne 34F2", "RECORDED RESULT": "100 µg/mL"}
{"COMPOUND": "CN[C@@H]1[C@H](O)[C@H](NC)[C@H]2O[C@]3(O)[C@H](O[C@@H]2[C@H]1O)O[C@H](C)C[C@@]3(O)CNCc1cccc(C)n1", "MEASURED TARGET": "Bacillus anthracis, Sterne 34F2", "RECORDED RESULT": "50 µg/mL"}
{"COMPOUND": "CN[C@@H]1[C@H](O)[C@H](NC)[C@H]2O[C@]3(O)[C@H](O[C@@H]2[C@H]1O)O[C@H](C)C[C@@]3(O)CNCc1ccc(SC)cc1 [compound 68, trihydrobromide]", "MEASURED TARGET": "Bacillus anthracis, Sterne 34F2", "RECORDED RESULT": "25 µg/mL"}
{"COMPOUND": "CN[C@@H]1[C@H](O)[C@H](NC)[C@H]2O[C@]3(O)[C@H](O[C@@H]2[C@H]1O)O[C@H](C)C[C@@]3(O)CNCCc1ccc(C)cc1 [compound 32, Trihydrochloride]", "MEASURED TARGET": "Bacillus anthracis, Sterne 34F2", "RECORDED RESULT": "12.5 µg/mL"}

So what does the record say about MIC for CN[C@@H]1[C@H](O)[C@H](NC)[C@H]2O[C@]3(O)[C@H](O[C@@H]2[C@H]1O)O[C@H](C)C[C@@]3(O)CNCc1cccs1 [compound 17, Trihydrochloride] ? 50 µg/mL

* * *

Reported values of zone of inhibition at 4 µg/disc for individual entries
Tested on: Neisseria meningitides (ATCC 13077)
Experiment: Disc diffusion assay
Type: cell-based
Settings: ATCC13077, 4 μg per disc, read-out: Zone of inhibition N.m.
Where a name gives a salt, the structure may show the parent alone.
Give the value, in units of mm, as a plain number.

Observe how each entry below is paired with its result.
{"COMPOUND": "CN[C@@H]1[C@H](O)[C@H](NC)[C@H]2O[C@]3(O)[C@H](O[C@@H]2[C@H]1O)O[C@H](C)C[C@@]3(O)CNCCc1ccc(OC)cc1 [compound 53, Trihydrochloride]", "UNIT DESCRIPTOR": "mm", "RECORDED RESULT": 10}
{"COMPOUND": "CN[C@@H]1[C@H](O)[C@H](NC)C2O[C@]3(O)C(OC2[C@H]1O)O[C@H](C)C[C@@]3(O)CNCc1cccc(O)c1 (some centres unmarked)", "UNIT DESCRIPTOR": "mm", "RECORDED RESULT": 18}

So what does the record say about zone of inhibition at 4 µg/disc for CN[C@@H]1[C@H](O)[C@H](NC)[C@H]2O[C@]3(O)[C@H](O[C@@H]2[C@H]1O)O[C@H](C)C[C@@]3(O)CNCCc1ccc[nH]1 ? 0

So what does the record say about zone of inhibition at 4 µg/disc for CN[C@@H]1[C@H](O)[C@H](NC)[C@H]2O[C@]3(O)[C@H](O[C@@H]2[C@H]1O)O[C@H](C)C[C@@]3(O)CNCCc1cccs1 [compound 61, trihydrobromide] ? 14

So what does the record say about zone of inhibition at 4 µg/disc for CN[C@@H]1[C@H](O)[C@H](NC)[C@H]2O[C@]3(O)[C@H](O[C@@H]2[C@H]1O)O[C@H](C)C[C@@]3(O)CNc1ccccc1 [compound 30, Trihydrochloride] ? 6

* * *

Reported values of MIC for individual entries
Tested on: Staphylococcus aureus (ATCC 29213)
Assay: MIC determination, microbroth dilution
Assay type: cell-based
Conditions: ATCC29213; Staphylococcus aureus (ATCC 29213); read-out: MIC S.a.
Structures can show the parent of a compound that is named as a salt.
Give the value, in units of µg/mL, as a plain number.

Observe how each entry below is paired with its result.
{"MOLECULE": "CN[C@@H]1[C@H](O)[C@H](NC)C2O[C@]3(O)C(OC2[C@H]1O)O[C@H](C)C[C@@]3(O)CNCc1ccc2ccccc2c1 (some centres unmarked) [compound 39]", "MEASURED TARGET": "Staphylococcus aureus (ATCC 29213)", "RECORDED RESULT": 100}
{"MOLECULE": "CN[C@@H]1[C@H](O)[C@H](NC)[C@H]2O[C@]3(O)[C@H](O[C@@H]2[C@H]1O)O[C@H](C)C[C@@]3(O)CNCc1ccccc1OC(F)(F)F [compound 10, Trihydrochloride]", "MEASURED TARGET": "Staphylococcus aureus (ATCC 29213)", "RECORDED RESULT": 200}

For the next question, use this molecule.
So what does the record say about MIC for CN[C@@H]1[C@H](O)[C@H](NC)[C@H]2O[C@]3(O)[C@H](O[C@@H]2[C@H]1O)O[C@H](C)C[C@@]3(O)CNCCc1ccc[nH]1 [compound 62] ? 25

* * *

Reported values of zone of inhibition at 4 µg/disc for individual entries
Test system: Legionella pneumophila (ATCC 33153)
Assay: microbe, parasite or virus in culture
Assay type: cell-based
Conditions: ATCC33153, 72 h, read-out: Zone of inhibition L.p.
Where a name gives a salt, the structure may show the parent alone.
Give the value, in units of mm, as a plain number.

{"MOLECULE": "CN[C@@H]1[C@H](O)[C@H](NC)[C@H]2O[C@]3(O)[C@H](O[C@@H]2[C@H]1O)O[C@H](C)C[C@@]3(O)CNCc1cccs1 [compound 17, Trihydrochloride]", "MEASURED TARGET": "Legionella pneumophila (ATCC 33153)", "RECORDED RESULT": 41}
{"MOLECULE": "CN[C@@H]1[C@H](O)[C@H](NC)[C@H]2O[C@]3(O)[C@H](O[C@@H]2[C@H]1O)O[C@H](C)C[C@]3(O)CNCc1ccc(OC(F)(F)F)cc1 (stereo in doubt) [compound 26, Trihydrochloride]", "MEASURED TARGET": "Legionella pneumophila (ATCC 33153)", "RECORDED RESULT": 8}

For the next question, use this molecule.
So what does the record say about zone of inhibition at 4 µg/disc for CN[C@@H]1[C@H](O)[C@H](NC)[C@H]2O[C@]3(O)[C@H](O[C@@H]2[C@H]1O)O[C@H](C)C[C@@]3(O)CNCc1cccc(OC(F)(F)F)c1 [compound 25, Trihydrochloride] ? 19

* * *

Tested on: Enterococcus faecalis (ATCC 33186)
Experiment: MIC determination, microbroth dilution
Format: cell-based
Settings: ATCC33186; Enterococcus faecalis (ATCC 33186); read-out: MIC E.f.
Counter-ions that a name gives are not always drawn.
VALUE KIND: MIC

Observe how each entry below is paired with its result.
{"MOLECULE": "CN[C@@H]1[C@H](O)[C@H](NC)[C@H]2O[C@]3(O)[C@H](O[C@@H]2[C@H]1O)O[C@H](C)C[C@@]3(O)CNCCc1ccccc1 [compound 6, Trihydrochloride]", "MIC": "12.5 µg/mL"}
{"MOLECULE": "CN[C@@H]1[C@H](O)[C@H](NC)[C@H]2O[C@]3(O)[C@H](O[C@@H]2[C@H]1O)O[C@H](C)C[C@@]3(O)CNCc1ccc(F)c(F)c1 [compound 12, Trihydrochloride]", "MIC": "50 µg/mL"}
{"MOLECULE": "CN[C@@H]1[C@H](O)[C@H](NC)[C@H]2O[C@]3(O)[C@H](O[C@@H]2[C@H]1O)O[C@H](C)C[C@@]3(O)CNCc1ccccc1F [compound 14, Trihydrochloride]", "MIC": "50 µg/mL"}
{"MOLECULE": "CN[C@@H]1[C@H](O)[C@H](NC)[C@H]2O[C@]3(O)[C@H](O[C@@H]2[C@H]1O)O[C@H](C)C[C@@]3(O)CNCc1ccc(C)cc1C [compound 24, Trihydrochloride]", "MIC": "12.5 µg/mL"}

For the next question, use this molecule.
So what does the record say about MIC for CN[C@@H]1[C@H](O)[C@H](NC)C2O[C@]3(O)C(OC2[C@H]1O)O[C@H](C)C[C@@]3(O)CNCc1cccn1C (some centres unmarked) ? > 200 µg/mL
